# System: HeLa
# protocolSummary: Cytotoxicity against human HeLa cells assessed as reduction in cell viability after 48 hrs by SRB assay
# Format: functional, cell-based
Form field: pIC50 (one value per entry).
Lab note: report pIC50 as minus log10 of the concentration in molar units, number only.

CC(=O)[C@H]1c2c(c(O)c3c(O)cccc3c2-c2c3c(c(O)c4c(O)cccc24)C(=O)C[C@](C)(O)[C@H]3C(C)=O)C(=O)C[C@]1(C)O; 5.74

Notebook: CC(=O)[C@H]1c2cc3c(-c4c5c(c(O)c6c(O)cccc46)C(=O)C[C@](C)(O)[C@H]5C(C)=O)ccc(O)c3c(O)c2C(=O)C[C@]1(C)O , pIC50 read as 5.29

###

Form field: IC50 (one value per entry).
# Tested on: K562
# protocolSummary: Cytotoxicity against human K562 cells assessed as reduction in cell viability after 48 hrs by MTT assay
# Assay type: functional, cell-based
# measurementParameters: K562, 48 h
API: value field is a number in µM; no unit string.

CC(=O)[C@H]1c2cc3c(-c4c5c(c(O)c6c(O)cccc46)C(=O)C[C@](C)(O)[C@H]5C(C)=O)ccc(O)c3c(O)c2C(=O)C[C@]1(C)O; 10

Now for a further compound.
Notebook: CC(=O)[C@H]1c2c(c(O)c3c(O)cccc3c2-c2c3c(c(O)c4c(O)cccc24)C(=O)C[C@](C)(O)[C@H]3C(C)=O)C(=O)C[C@]1(C)O , IC50 read as 5.1

###

# Tested on: K562
# protocolSummary: Cytotoxicity against human K562 cells assessed as reduction in cell viability after 48 hrs by MTT assay
# Type: functional, cell-based
# measurementParameters: K562, 48 h
pIC50: −log10 of the molar value. Structures can show the parent of a compound that is named as a salt.
parameter: pIC50

CC(=O)[C@H]1c2cc3ccc(-c4c5c(c(O)c6c(O)cccc46)C(=O)C[C@](C)(O)[C@H]5C(C)=O)c(O)c3c(O)c2C(=O)C[C@]1(C)O; < 5.00
CC(=O)[C@H]1c2cc3cccc(O)c3c(O)c2C(=O)C[C@]1(C)O; < 5.00

Notebook: COc1cccc2c1C(=O)c1c(O)c3c(c(O)c1C2=O)C[C@@](O)(C(=O)CO)C[C@@H]3O[C@H]1C[C@H](N)[C@H](O)[C@H](C)O1 [DOXORUBICIN HYDROCHLORIDE] , pIC50 read as 6.70

###

Form field: pIC50 (one value per entry).
# System: HeLa
# protocolSummary: Cytotoxicity against human HeLa cells assessed as reduction in cell viability after 48 hrs by SRB assay
# Type: functional, cell-based
pIC50: −log10 of the molar value.

# count of solved cases: 2
CC(=O)[C@H]1c2cc3c(-c4ccc(O)c5c(O)c6c(cc45)[C@H](C(C)=O)[C@@](C)(O)CC6=O)ccc(O)c3c(O)c2C(=O)C[C@]1(C)O; < 5.00
CC(=O)[C@H]1c2cc3cccc(O)c3c(O)c2C(=O)C[C@]1(C)O; < 5.00

Now for a further compound.
Notebook: CC(=O)[C@H]1c2cc3ccc(-c4c5c(c(O)c6c(O)cccc46)C(=O)C[C@](C)(O)[C@H]5C(C)=O)c(O)c3c(O)c2C(=O)C[C@]1(C)O , pIC50 read as < 5.00
